From: ChEMBL document CHEMBL4513216

Examples of compounds with documented cytotoxicity at 10 µM follow.
# assay.info: Toxicity liver stage against HepG2, at 10uM
# Format: cell-based
# Parameters: test concentration 10 uM, cell line HepG2-A16-CD81EGFP
# experimental.context: human, HepG2-A16-CD81EGFP cells; read-out: INHIBITION
Form entry: value (%) — number only.

-- ask What does the data say about its cytotoxicity at 10 µM? Entry: Cc1noc(C)c1CN1CC[C@H]2C[C@H](c3ccncn3)O[C@@H]2C1
-- reply -69.5

-- ask What does the data say about its cytotoxicity at 10 µM? Entry: Cc1cc(N2CCC3(CCCN(C4CCOCC4)C3=O)C2)ccn1 (centres undefined)
-- reply -134

-- ask What does the data say about its cytotoxicity at 10 µM? Entry: Cc1cc(C)n(NC(=O)c2cccc3c2OCC3)c(=O)c1
-- reply 1.91

-- ask What does the data say about its cytotoxicity at 10 µM? Entry: CN1CC2(CCN(c3nc(N)nc4c3CCNC4)CC2)OC1=O
-- reply -5.66

-- ask What does the data say about its cytotoxicity at 10 µM? Entry: Cc1ccccc1C(NC(=O)NCC1(CO)CC1)C1CC1 (centres undefined)
-- reply -7.16

-- ask What does the data say about its cytotoxicity at 10 µM? Entry: CC(C)NC(=O)CCNC(=O)Nc1cnn(-c2ccccc2Cl)c1
-- reply 1.75

-- ask What does the data say about its cytotoxicity at 10 µM? Entry: c1cnnc(N2CCCC(NCc3cccc4c3OCCCO4)C2)c1 (centres undefined)
-- reply -19.8

-- ask What does the data say about its cytotoxicity at 10 µM? Entry: CCc1noc(C2CCCCN2C(=O)c2ccc(C)o2)n1 (centres undefined)
-- reply 14

-- ask What does the data say about its cytotoxicity at 10 µM? Entry: O=C(CCc1ccccc1)N1C[C@H]2CCN[C@H]2C1
-- reply -4.22

-- ask What does the data say about its cytotoxicity at 10 µM? Entry: Cc1nc(C(C)Nc2ncnc3c2CCNCC3)c(C)s1 (centres undefined)
-- reply -6.64

Next:
-- ask What does the data say about its cytotoxicity at 10 µM? Entry: O=C(Nc1ccc(F)cc1-c1nc(C2CC2)no1)N1CC[C@@H](O)C1
-- reply -1.54

* * *

# assay.info: Toxicity liver stage against HepG2, at 10uM
# Type: cell-based
# Set-up: test concentration 10 uM, cell line HepG2-A16-CD81EGFP
# experimental.context: human, HepG2-A16-CD81EGFP cells; read-out: INHIBITION
parameter: cytotoxicity at 10 µM
Just the number plus its unit, please.

Known results for compounds:
-- ask What does the data say about its cytotoxicity at 10 µM? Entry: CC(C(=O)Nc1cccc(F)c1)N(C)CCN1CCOCC1 (configuration not stated)
-- reply -9.19%

-- ask What does the data say about its cytotoxicity at 10 µM? Entry: CC(Nc1cccc(F)c1C#N)c1cccc(S(N)(=O)=O)c1 (configuration not stated)
-- reply 12.8%

-- ask What does the data say about its cytotoxicity at 10 µM? Entry: O=C(c1ccno1)N1CC2(CCC(C(=O)N3CCCC3)O2)C1 (configuration not stated)
-- reply -157%

-- ask What does the data say about its cytotoxicity at 10 µM? Entry: CC(C)c1nc(C2CCCN2Cc2nnc(C3CCC3)o2)no1 (configuration not stated)
-- reply -15.6%

-- ask What does the data say about its cytotoxicity at 10 µM? Entry: Cn1ncc2c1NC(=O)CC2c1ccc(Cl)cc1Cl (configuration not stated)
-- reply 59.9%

Next:
-- ask What does the data say about its cytotoxicity at 10 µM? Entry: Cc1c(C(=O)O)sc2nc(Cc3ccccc3)nc(N)c12
-- reply -0.924%

-- ask What does the data say about its cytotoxicity at 10 µM? Entry: CO[C@H]1CN(C(=O)c2cccnc2)[C@@H]2CCCO[C@H]12
-- reply 5%

-- ask What does the data say about its cytotoxicity at 10 µM? Entry: CC(C)c1nn(C)c(N(C)C)c1CNCc1cccnc1N(C)C
-- reply -8.66%

-- ask What does the data say about its cytotoxicity at 10 µM? Entry: CCn1ncc2[nH]c(-c3cc(OC)c(OC)cc3OC)nc21
-- reply -2.61%

-- ask What does the data say about its cytotoxicity at 10 µM? Entry: Cc1cc(C)cc(CN2CCN(Cc3cc(C#N)n(C)c3)CC2=O)c1
-- reply 6.24%

-- ask What does the data say about its cytotoxicity at 10 µM? Entry: COCCN(C)C(C(=O)O)c1ccc(C)c(C)c1 (configuration not stated)
-- reply -9.47%

-- ask What does the data say about its cytotoxicity at 10 µM? Entry: Cn1cc(C2CCCN2C(=O)Cn2c(=O)oc3ccccc32)cn1 (configuration not stated)
-- reply 1.84%

* * *

# assay.info: Toxicity liver stage against HepG2, at 10uM
# Type: cell-based
# Parameters: test concentration 10 uM, cell line HepG2-A16-CD81EGFP
# experimental.context: human, HepG2-A16-CD81EGFP cells; read-out: INHIBITION
Examples of compounds with documented cytotoxicity at 10 µM follow.
Form entry: value (%) — number only.

-- ask What does the data say about its cytotoxicity at 10 µM? Entry: O=C(O)c1nnn(-c2ccc(Cl)c(C(F)(F)F)c2)c1-c1ccncc1
-- reply 8.63

* * *

# assay.info: Toxicity liver stage against HepG2, at 10uM
# Type: cell-based
# Parameters: test concentration 10 uM, cell line HepG2-A16-CD81EGFP
# experimental.context: human, HepG2-A16-CD81EGFP cells; read-out: INHIBITION
parameter: cytotoxicity at 10 µM (%)
Form entry: value (%) — number only.

Known results for molecules:
-- ask What does the data say about its cytotoxicity at 10 µM? Entry: CSCC(C)(O)CNc1cccc(F)c1C(C)=O (configuration not stated)
-- reply 2.19

-- ask What does the data say about its cytotoxicity at 10 µM? Entry: CN(Cc1ccc(Br)s1)Cn1nc(-c2ccccc2)oc1=O
-- reply 4.86

-- ask What does the data say about its cytotoxicity at 10 µM? Entry: O=C(O)c1ccc(OC2CCOCC2)cc1
-- reply -6.11

-- ask What does the data say about its cytotoxicity at 10 µM? Entry: Cc1ccc(CN2C[C@@H]3CN(C(=O)c4cccn4C)C[C@@H]3C2)cc1
-- reply -4.25

Next:
-- ask What does the data say about its cytotoxicity at 10 µM? Entry: COCc1noc(Cn2c(C3CC3)nc3ccccc32)n1
-- reply 13.2

-- ask What does the data say about its cytotoxicity at 10 µM? Entry: CC1(C)CCC(C(=O)O)c2ccccc21 (configuration not stated)
-- reply -1.92

-- ask What does the data say about its cytotoxicity at 10 µM? Entry: Cn1cccc1C(=O)N1C[C@H]2CN(CCN3CCCC3)C(=O)[C@H]2C1
-- reply -119

-- ask What does the data say about its cytotoxicity at 10 µM? Entry: CN(C)c1nc(NCCCN2CCc3ccccc32)ncc1F
-- reply 27.3

-- ask What does the data say about its cytotoxicity at 10 µM? Entry: COc1ccc(-c2ccnc3c2C(=O)CCC3)cc1
-- reply 6.09

-- ask What does the data say about its cytotoxicity at 10 µM? Entry: CN(C)C(=O)c1ccn(-c2ccc3ccccn23)n1
-- reply 6.98

-- ask What does the data say about its cytotoxicity at 10 µM? Entry: Cc1cccc(CN2CCCC3(CCN(CC(=O)N(C)C)C3=O)C2)n1 (configuration not stated)
-- reply -119

-- ask What does the data say about its cytotoxicity at 10 µM? Entry: Cc1cnn(C2CCCN(C(=O)Cc3ccc(-n4cccn4)cc3)C2)c1 (configuration not stated)
-- reply 2.55

* * *

Examples of molecules with documented cytotoxicity at 10 µM follow.
# assay.info: Toxicity liver stage against HepG2, at 10uM
# Assay type: cell-based
# Parameters: test concentration 10 uM, cell line HepG2-A16-CD81EGFP
# experimental.context: human, HepG2-A16-CD81EGFP cells; read-out: INHIBITION
Form entry: value (%) — number only.

Known results for molecules:
-- ask What does the data say about its cytotoxicity at 10 µM? Entry: Cc1c(C(=O)O)cnn1-c1ccc(-c2nc(C(C)C)no2)cn1
-- reply -3.42

-- ask What does the data say about its cytotoxicity at 10 µM? Entry: Cc1ccc(C(O)CNC(=O)NCc2nc(C)cs2)cc1 (stereo unspecified)
-- reply -13.3

-- ask What does the data say about its cytotoxicity at 10 µM? Entry: CC(C)=CCN1C[C@@H]2CN(C(=O)c3ccc(CO)cc3)C[C@]2(C(=O)O)C1
-- reply 2.21

-- ask What does the data say about its cytotoxicity at 10 µM? Entry: CN1CCC(CCNC(=O)c2ccc(N(C)S(C)(=O)=O)cc2Cl)CC1
-- reply -10.1

Next:
-- ask What does the data say about its cytotoxicity at 10 µM? Entry: O[C@H]1Cc2ccccc2[C@H]1n1ccnc1-c1cc2n(n1)CCNC2
-- reply 1.58

-- ask What does the data say about its cytotoxicity at 10 µM? Entry: C[C@H]1C(=O)NC[C@H]2CN(Cc3ccccc3)C[C@H]21
-- reply 1.47

* * *

# assay.info: Toxicity liver stage against HepG2, at 10uM
# Type: cell-based
# Design: test concentration 10 uM, cell line HepG2-A16-CD81EGFP
# experimental.context: human, HepG2-A16-CD81EGFP cells; read-out: INHIBITION
Examples of compounds with documented cytotoxicity at 10 µM follow.
Form entry: value (%) — number only.

Known results for compounds:
-- ask What does the data say about its cytotoxicity at 10 µM? Entry: O=S(=O)(C1CC1)N1CC[C@]2(C[C@@H](OCC3CCOCC3)CO2)C1
-- reply 8.13

-- ask What does the data say about its cytotoxicity at 10 µM? Entry: CN(Cc1ccncc1)C(=O)Nc1cnn(CC(N)=O)c1
-- reply -3.07

-- ask What does the data say about its cytotoxicity at 10 µM? Entry: O=C(CCc1ccc(F)cc1)NS(=O)(=O)c1ccc2c(c1)OCCO2
-- reply -12.8

-- ask What does the data say about its cytotoxicity at 10 µM? Entry: N#Cc1ccc(NC2CCN(c3ncccn3)CC2)cc1C(F)(F)F
-- reply 27.5

-- ask What does the data say about its cytotoxicity at 10 µM? Entry: CCc1nnc(CN2CCCC(c3cc(C(N)=O)[nH]n3)C2)o1 (stereo unspecified)
-- reply -12.7

-- ask What does the data say about its cytotoxicity at 10 µM? Entry: c1cncc(CNC2CCc3ncnn3C2)c1 (stereo unspecified)
-- reply -7.91

-- ask What does the data say about its cytotoxicity at 10 µM? Entry: O=C(c1ccc(C2CCCN2)s1)N1CCN2CCC1CC2 (stereo unspecified)
-- reply -8.52

-- ask What does the data say about its cytotoxicity at 10 µM? Entry: Cc1nc(C(=O)N(C)C2CC(=O)N(Cc3ccccc3)C2=O)cs1 (stereo unspecified)
-- reply 0.423

-- ask What does the data say about its cytotoxicity at 10 µM? Entry: O=C(NCCN1CCCCCC1=O)c1ccc(=O)[nH]n1
-- reply -19.3

-- ask What does the data say about its cytotoxicity at 10 µM? Entry: O=C(c1cc(-c2cccs2)on1)N1CCCCC1Cn1cccn1 (stereo unspecified)
-- reply -2.93

Next:
-- ask What does the data say about its cytotoxicity at 10 µM? Entry: O=C(Nc1cc(C(F)(F)F)c[nH]c1=O)C1CCCCN1 (stereo unspecified)
-- reply -0.924

-- ask What does the data say about its cytotoxicity at 10 µM? Entry: COc1cc(F)c(CN2CC[C@@](O)(C3CC3)[C@H](C)C2)cc1OC
-- reply 0.0489

-- ask What does the data say about its cytotoxicity at 10 µM? Entry: O=C(c1cscn1)N1CCC(Cn2cc(-c3ccsc3)nn2)CC1
-- reply 0.259

-- ask What does the data say about its cytotoxicity at 10 µM? Entry: CCn1c(CN2CCN(CCOC)CC2)nc2c(F)cccc21
-- reply -9.86

-- ask What does the data say about its cytotoxicity at 10 µM? Entry: CN(C)c1cc(CNC(=O)Nc2cccnc2N2CCCC2)ccn1
-- reply -20.5

-- ask What does the data say about its cytotoxicity at 10 µM? Entry: Cc1cc(NCCn2cccn2)n2ncnc2n1
-- reply -2.27

-- ask What does the data say about its cytotoxicity at 10 µM? Entry: CNC(=O)CCNC(=O)c1cccc(Cn2nc(C)cc2C)c1
-- reply -16.6

-- ask What does the data say about its cytotoxicity at 10 µM? Entry: COc1ccc(-n2cccn2)c(CN2CCOCC(CN(C)C)C2)c1 (stereo unspecified)
-- reply -14.6

-- ask What does the data say about its cytotoxicity at 10 µM? Entry: Cc1nnsc1C(=O)NCCn1ccc(-c2ccncc2)n1
-- reply 1.92

-- ask What does the data say about its cytotoxicity at 10 µM? Entry: CC(C)C(C#N)N1CCN(Cc2nccn2CC(F)(F)F)CC1 (stereo unspecified)
-- reply 0.172

-- ask What does the data say about its cytotoxicity at 10 µM? Entry: COc1ccccc1CN1CC[C@]2(C[C@@H](OC)CO2)C1
-- reply -5.35

-- ask What does the data say about its cytotoxicity at 10 µM? Entry: Cc1ccc(N2CCN(C(=O)C(O)c3cccc(Cl)c3)CC2=O)cc1 (stereo unspecified)
-- reply -5.01
